System: Pentylenetetrazole-Induced Convulsion
Protocol text: Potentiation of Pentylenetetrazole-Induced Convulsion (inverse agonist activity)
Type: in vivo
Condition set: Mus musculus; intravenous; mice; pentylenetetrazole 90 mg/kg s.c. (subconvulsive); 2-h observation; probit; read-out: ED50 (production of tonic convulsion and death)
Assign ED50 to each entry below.
Answers are plain numbers, in mg/kg.

Look up ED50 for the entries below, preserving their order.
1. Clc1ccc2c(c1)ncc1nc(-c3cccs3)[nH]c12 [Compound C35]
2. c1csc(-c2nc3cnc4ccsc4c3[nH]2)c1 [Compound K5]
3. c1ccc2c(c1)ncc1nc(-c3ccon3)[nH]c12 [Compound C58]
4. c1csc(-c2nc3cnc4sccc4c3[nH]2)c1 [Compound F7]
5. Cc1cc2c(ncc3nc(-c4cccs4)[nH]c32)s1 [Compound F2]
6. Cc1csc(-c2nc3cnc4ccccc4c3[nH]2)n1 [Compound C71]

1.76
0.54
1.65
0.5
0.13
4.18
